Tested on: HepG2 Srxn1-GFP reporter cells (+30 nM CDDO-Me)
Test: Srxn1-GFP intensity median modified Z-score relative to plate median; higher = stronger NRF2 / oxidative stress reporter activation, active = hit call of the paper
Conditions: 10 µM; exposure time: 24h
Out of some 2,300 compounds screened, about 330 (14%) showed activity. A selection follows.
Measured Srxn1-GFP intensity median modified Z-score of individual entries
Keep it simple and answer with nothing but the number.

Answered cases to consult:
C[C@@H]1CC2C3CC(F)=C4CC(=O)C=C[C@]4(C)[C@@]3(F)[C@@H](O)C[C@]2(C)[C@@]1(O)C(=O)COC(=O)C(C)(C)C (some centres undefined) = -0.646
CCCCCc1c2c(cc(O)c1C(=O)O)OC(=O)c1c(cc(OC)cc1C(=O)CCCC)O2 = 4.46
N#CCSc1nnc(-c2ccc(Br)cc2)n1C1CCCCC1 = 1.88
CC(C)NCC(O)COc1ccc(CC(N)=O)cc1 (centres undefined) = -0.166
NC(=O)CCC(N)C(=O)O (centres undefined) = -0.533

Input: What Srxn1-GFP intensity median modified Z-score appears in the records for this molecule with HepG2 Srxn1-GFP reporter cells (+30 nM CDDO-Me)? `C[N+](C)(C)C[C@H](O)CC(=O)O`
Output: -0.18

Input: What Srxn1-GFP intensity median modified Z-score appears in the records for this molecule with HepG2 Srxn1-GFP reporter cells (+30 nM CDDO-Me)? O=c1c(CC[S+]([O-])c2ccccc2)c(O)n(-c2ccccc2)n1-c1ccccc1 (centres undefined)
Output: -0.197

Input: What Srxn1-GFP intensity median modified Z-score appears in the records for this molecule with HepG2 Srxn1-GFP reporter cells (+30 nM CDDO-Me)? `Cc1ccccc1-n1cnnc1SCC(=O)c1ccc2c(c1)OCCO2`
Output: 1.22

Input: What Srxn1-GFP intensity median modified Z-score appears in the records for this molecule with HepG2 Srxn1-GFP reporter cells (+30 nM CDDO-Me)? `CCCCc1c(O)n(-c2ccc(O)cc2)n(-c2ccccc2)c1=O`
Output: 13.1

---

System: HepG2 Srxn1-GFP reporter cells (+30 nM CDDO-Me)
Test: Srxn1-GFP intensity median modified Z-score relative to plate median; higher = stronger NRF2 / oxidative stress reporter activation, active = hit call of the paper
Conditions: 10 µM; exposure time: 24h
The campaign covered roughly 2,300 compounds. About 330 (14%) showed activity. The list is a sample of the results.
Reported Property: Srxn1-GFP intensity median modified Z-score
Keep it simple and answer with nothing but the number.

CC(CCC(=O)O)C1CCC2C3CCC4CC(O)CCC4(C)C3CC(=O)C12C (centres undefined) = 0.291
O=C(Oc1ccccc1C(=O)O)c1ccccc1O [euspeclibcmpd2] = -0.023
O=c1[nH]c(=O)n(C2C[C@@H](O)[C@@H](CO)O2)cc1F (some centres undefined) [euspeclibcmpd516] = 1.56

Input: Any idea what its Srxn1-GFP intensity median modified Z-score is? The molecule is O=C(O)CCNC(=O)c1ccc(N=Nc2ccc(O)c(C(=O)O)c2)cc1 [euspeclibcmpd2245]
Output: -0.361

Input: Any idea what its Srxn1-GFP intensity median modified Z-score is? The molecule is O=C(O)c1ccccc1OP(=O)(O)O [euspeclibcmpd1073]
Output: -0.579

---

System: HepG2 Srxn1-GFP reporter cells (+30 nM CDDO-Me)
Test: Srxn1-GFP intensity median modified Z-score relative to plate median; higher = stronger NRF2 / oxidative stress reporter activation, active = hit call of the paper
Conditions: 10 µM; exposure time: 24h
The whole screen tested about 2,300 compounds, of which about 330 (14%) showed activity.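 Rule for the calls: active = median modified Z-score above 1.96; inactive = 1.96 or below.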 A selection follows.
Pick one: active, inactive

Solved entries:
CC(C)n1c(C=CC(O)CC(O)CC(=O)O)c(-c2ccc(F)cc2)c2ccccc21 (centres undefined) = active
COc1ccc(-c2coc3cc(O)ccc3c2=O)c(OC)c1 = inactive
CC(O)CN1CCN(CC(=O)O)CCN(CC(=O)O)CCN(CC(=O)O)CC1 (centres undefined) = inactive
CC(C)CCOc1ccc2[nH]c(-c3cc(NCCc4cn5c(n4)SCC5)ccn3)cc2c1 = inactive
CC(C)=c1nc(N(C)S(C)(=O)=O)nc(-c2ccc(F)cc2)c1=CC[C@@H](O)C[C@@H](O)CC(=O)O = inactive

Input: Status in this test for CCC(C)(C)c1ccc(CC(C)CN2C[C@@H](C)O[C@@H](C)C2)cc1 (some centres undefined) ?
Output: inactive

Input: Status in this test for `Cc1ccsc1C=CC1=NCCCN1C` ?
Output: inactive

Input: Status in this test for `OC[C@@H](O)[C@@H](O)[C@H](O)[C@@H](O)CO` ?
Output: inactive

Input: Status in this test for Cc1cnn(CCC(=O)NC2CCCN(c3ccc(C)nn3)C2)c1 (centres undefined) ?
Output: inactive

---

Measured Srxn1-GFP intensity median modified Z-score of individual entries
System: HepG2 Srxn1-GFP reporter cells (+30 nM CDDO-Me)
Test: Srxn1-GFP intensity median modified Z-score relative to plate median; higher = stronger NRF2 / oxidative stress reporter activation, active = hit call of the paper
Conditions: 10 µM; exposure time: 24h
Out of some 2,300 compounds screened, about 330 (14%) showed activity. Only a sample is shown.
Keep it simple and answer with nothing but the number.

Input: Any idea what its Srxn1-GFP intensity median modified Z-score is? The compound is `COC(=O)c1cc(OC)c(=O)c2c(OC)c(OC)ccc2c1`
Output: -0.421

Input: Any idea what its Srxn1-GFP intensity median modified Z-score is? The compound is `CN(C)CCOC(=O)COc1ccc(Cl)cc1`
Output: -0.393

Input: Any idea what its Srxn1-GFP intensity median modified Z-score is? The compound is `COc1ccc(-c2ccc3cc(C(=O)O)ccc3c2)cc1C12CC3CC(CC(C3)C1)C2`
Output: 3.08

Input: Any idea what its Srxn1-GFP intensity median modified Z-score is? The compound is `COc1cc(C(=O)NCc2ccc(OCCN(C)C)cc2)cc(OC)c1OC`
Output: 0.482

Input: Any idea what its Srxn1-GFP intensity median modified Z-score is? The compound is `CCN(CC)CCNC(=O)c1cc(Cl)c(N)cc1OC`
Output: 86.5

Input: Any idea what its Srxn1-GFP intensity median modified Z-score is? The compound is `CCN(CC)CCOc1ccc(/C(=C(\Cl)c2ccccc2)c2ccccc2)cc1`
Output: -1.55

Input: Any idea what its Srxn1-GFP intensity median modified Z-score is? The compound is `COc1ccc(C(=O)NCc2ccc(OCCN(C)C)cc2)cc1OC`
Output: 0.331

Input: Any idea what its Srxn1-GFP intensity median modified Z-score is? The compound is `CCN(CC)CCNC(=O)c1cc(S(C)(=O)=O)ccc1OC`
Output: -0.717

Input: Any idea what its Srxn1-GFP intensity median modified Z-score is? The compound is `COc1cc(C(=O)O)cc(OC)c1O`
Output: 0.178

---

Test system: HepG2 Srxn1-GFP reporter cells (+30 nM CDDO-Me)
Test: Srxn1-GFP intensity median modified Z-score relative to plate median; higher = stronger NRF2 / oxidative stress reporter activation, active = hit call of the paper
Conditions: 10 µM; exposure time: 24h
Among all 2,300 compounds or so, about 330 (14%) showed activity. These entries were drawn from the full list.
Measured Srxn1-GFP intensity median modified Z-score of individual entries

Answered cases to consult:
CC[C@H]1OC(=O)C(C)[C@@H](O[C@H]2C[C@@](C)(OC)[C@@H](O)[C@H](C)O2)[C@H](C)[C@@H](O[C@@H]2O[C@H](C)C[C@H](N(C)C)[C@H]2O)[C@](C)(OC)CC(C)C(=O)C(C)[C@@H](O)[C@]1(C)O (some centres not stated) = 1.56 (inactive)
CCCSc1ccc2[nH]c(=NC(=O)OC)[nH]c2c1 = 3.71 (active)
C=CCn1c(C(C)Oc2ccc(OCC)cc2)nnc1N1CCC(C(=O)OC)CC1 (configuration not stated) = 1.58 (inactive)
CC(=O)OC1CCC2(C)C(=CCC3C2CCC2(C)C(C(=O)O)CCC32)C1 (configuration not stated) = 0.226 (inactive)
OC[C@@H](O)[C@@H](O[C@@H]1O[C@H](CO)[C@H](O)[C@H](O)[C@H]1O)[C@H](O)[C@@H](O)CO = -0.142 (inactive)

Input: Any idea what its Srxn1-GFP intensity median modified Z-score is? The compound is `CN(C/C=C/C#CC(C)(C)C)Cc1cccc2ccccc12`
Output: 3.24 (active)

Input: Any idea what its Srxn1-GFP intensity median modified Z-score is? The compound is `CC1(C)[C@@H]2CC[C@]1(C)C(=O)C2`
Output: -0.12 (inactive)

Input: Any idea what its Srxn1-GFP intensity median modified Z-score is? The compound is `O=C1/C(=C/c2cccs2)CCC/C1=C\c1cccs1`
Output: 36.6 (active)

---

System: HepG2 Srxn1-GFP reporter cells (+30 nM CDDO-Me)
Test: Srxn1-GFP intensity median modified Z-score relative to plate median; higher = stronger NRF2 / oxidative stress reporter activation, active = hit call of the paper
Conditions: 10 µM; exposure time: 24h
The campaign covered roughly 2,300 compounds. About 330 (14%) showed activity. Only a sample is shown.
Reported Property: Srxn1-GFP intensity median modified Z-score
Keep it simple and answer with nothing but the number.

Answered cases to consult:
Cc1cc(=O)oc2cc(O)c(O)cc12 = -0.517
CC1(C)SC2C(NC(=O)C(N)c3ccccc3)C(=O)N2C1C(=O)O (configuration not stated) = -0.172
CC=CC1=C(C(=O)O)N2C(=O)C(NC(=O)C(N)c3ccc(O)cc3)C2SC1 (configuration not stated) = 0.0492
CCC(C)n1ncn(-c2ccc(N3CCN(c4ccc(OC[C@H]5CO[C@](Cn6cncn6)(c6ccc(Cl)cc6Cl)O5)cc4)CC3)cc2)c1=O (some centres not stated) = 2.71

Input: Any idea what its Srxn1-GFP intensity median modified Z-score is? The compound is `C1CNCCN1`
Output: 5.44

Input: Any idea what its Srxn1-GFP intensity median modified Z-score is? The compound is CC(=O)N1CCN(c2ccc(OCC3CO[C@](Cn4ccnc4)(c4ccc(Cl)cc4Cl)O3)cc2)CC1 (some centres not stated)
Output: 0.674

Input: Any idea what its Srxn1-GFP intensity median modified Z-score is? The compound is CC(=O)OC1(C(C)=O)CCC2C3=CC(Cl)=C4CC(=O)C5CC5C4(C)C3CCC21C (configuration not stated)
Output: -0.163

Input: Any idea what its Srxn1-GFP intensity median modified Z-score is? The compound is `O=C(O)CC(O)(CC(=O)O)C(=O)O`
Output: 0.449

Input: Any idea what its Srxn1-GFP intensity median modified Z-score is? The compound is `CC(C)N1CCN(c2ccc(OC[C@H]3CO[C@](Cn4cncn4)(c4ccc(Cl)cc4Cl)O3)cc2)CC1`
Output: 1.6

Input: Any idea what its Srxn1-GFP intensity median modified Z-score is? The compound is CC(=O)OC=C1CSC2C(NC(=O)Cc3cccs3)C(=O)N2C1C(=O)O (configuration not stated)
Output: 0.967

Input: Any idea what its Srxn1-GFP intensity median modified Z-score is? The compound is C=C(C)[C@@H]1CC[C@]2(CO)CC[C@]3(C)[C@H](CCC4[C@@]5(C)CC[C@H](O)C(C)(C)C5CC[C@]43C)C12 (some centres not stated)
Output: 10.7

Input: Any idea what its Srxn1-GFP intensity median modified Z-score is? The compound is `O=c1[nH]cnc2[nH]ncc12`
Output: 0.378

Input: Any idea what its Srxn1-GFP intensity median modified Z-score is? The compound is `COc1ccc(-c2coc3cc(O)cc(O)c3c2=O)cc1`
Output: -0.252

Input: Any idea what its Srxn1-GFP intensity median modified Z-score is? The compound is `OC[C@H]1O[C@H](O[C@H]2[C@H](O)[C@@H](O)[C@H](O)O[C@@H]2CO)[C@H](O)[C@@H](O)[C@@H]1O`
Output: -0.629

Input: Any idea what its Srxn1-GFP intensity median modified Z-score is? The compound is `CCCCCN=C(N)NN=Cc1c[nH]c2ccc(OC)cc12`
Output: -0.285

Input: Any idea what its Srxn1-GFP intensity median modified Z-score is? The compound is `O=C(NCCC(=O)N1CCN(Cc2ccc3c(c2)OCO3)CC1)c1ccc(Cl)cc1`
Output: 1.31

Input: Any idea what its Srxn1-GFP intensity median modified Z-score is? The compound is `O=c1c(-c2ccc(O)cc2)coc2cc(O)ccc12`
Output: 0.00154
